Hi there, I'd appreciate the recorded concentration at 2 h for every entry that follows.
- ASSAY METHOD TEXT: Biodistribution in OFA rat eyes at 1 mg/kg, iv after 2 hrs
- Type: ADME, organism-based
- Parameters: dose 1 mg/kg, route intravenous
- ASSAY CONDITIONS: eye, read-out: Drug uptake
# output: bare number, implied unit ng/g

What value of concentration at 2 h has been recorded for this entry: O=C(c1ccc(Cl)cc1)N1CCN(Cc2ccc(-n3ccnc3)cc2)CC1
65

What value of concentration at 2 h has been recorded for this entry: CN(C)Cc1ccc(CN2CCN(C(=O)c3ccc(OC(F)(F)F)cc3)CC2)cc1
260

What value of concentration at 2 h has been recorded for this entry: CN1CCN(c2ccc(CN3CCN(S(=O)(=O)c4ccc(Cl)cc4)CC3)cc2)CC1
278

The reported numbers originate from ChEMBL document CHEMBL1150355.
